# subjectOfTest: UniProt:P49327
# Sequence (P49327 whole entry, looked up): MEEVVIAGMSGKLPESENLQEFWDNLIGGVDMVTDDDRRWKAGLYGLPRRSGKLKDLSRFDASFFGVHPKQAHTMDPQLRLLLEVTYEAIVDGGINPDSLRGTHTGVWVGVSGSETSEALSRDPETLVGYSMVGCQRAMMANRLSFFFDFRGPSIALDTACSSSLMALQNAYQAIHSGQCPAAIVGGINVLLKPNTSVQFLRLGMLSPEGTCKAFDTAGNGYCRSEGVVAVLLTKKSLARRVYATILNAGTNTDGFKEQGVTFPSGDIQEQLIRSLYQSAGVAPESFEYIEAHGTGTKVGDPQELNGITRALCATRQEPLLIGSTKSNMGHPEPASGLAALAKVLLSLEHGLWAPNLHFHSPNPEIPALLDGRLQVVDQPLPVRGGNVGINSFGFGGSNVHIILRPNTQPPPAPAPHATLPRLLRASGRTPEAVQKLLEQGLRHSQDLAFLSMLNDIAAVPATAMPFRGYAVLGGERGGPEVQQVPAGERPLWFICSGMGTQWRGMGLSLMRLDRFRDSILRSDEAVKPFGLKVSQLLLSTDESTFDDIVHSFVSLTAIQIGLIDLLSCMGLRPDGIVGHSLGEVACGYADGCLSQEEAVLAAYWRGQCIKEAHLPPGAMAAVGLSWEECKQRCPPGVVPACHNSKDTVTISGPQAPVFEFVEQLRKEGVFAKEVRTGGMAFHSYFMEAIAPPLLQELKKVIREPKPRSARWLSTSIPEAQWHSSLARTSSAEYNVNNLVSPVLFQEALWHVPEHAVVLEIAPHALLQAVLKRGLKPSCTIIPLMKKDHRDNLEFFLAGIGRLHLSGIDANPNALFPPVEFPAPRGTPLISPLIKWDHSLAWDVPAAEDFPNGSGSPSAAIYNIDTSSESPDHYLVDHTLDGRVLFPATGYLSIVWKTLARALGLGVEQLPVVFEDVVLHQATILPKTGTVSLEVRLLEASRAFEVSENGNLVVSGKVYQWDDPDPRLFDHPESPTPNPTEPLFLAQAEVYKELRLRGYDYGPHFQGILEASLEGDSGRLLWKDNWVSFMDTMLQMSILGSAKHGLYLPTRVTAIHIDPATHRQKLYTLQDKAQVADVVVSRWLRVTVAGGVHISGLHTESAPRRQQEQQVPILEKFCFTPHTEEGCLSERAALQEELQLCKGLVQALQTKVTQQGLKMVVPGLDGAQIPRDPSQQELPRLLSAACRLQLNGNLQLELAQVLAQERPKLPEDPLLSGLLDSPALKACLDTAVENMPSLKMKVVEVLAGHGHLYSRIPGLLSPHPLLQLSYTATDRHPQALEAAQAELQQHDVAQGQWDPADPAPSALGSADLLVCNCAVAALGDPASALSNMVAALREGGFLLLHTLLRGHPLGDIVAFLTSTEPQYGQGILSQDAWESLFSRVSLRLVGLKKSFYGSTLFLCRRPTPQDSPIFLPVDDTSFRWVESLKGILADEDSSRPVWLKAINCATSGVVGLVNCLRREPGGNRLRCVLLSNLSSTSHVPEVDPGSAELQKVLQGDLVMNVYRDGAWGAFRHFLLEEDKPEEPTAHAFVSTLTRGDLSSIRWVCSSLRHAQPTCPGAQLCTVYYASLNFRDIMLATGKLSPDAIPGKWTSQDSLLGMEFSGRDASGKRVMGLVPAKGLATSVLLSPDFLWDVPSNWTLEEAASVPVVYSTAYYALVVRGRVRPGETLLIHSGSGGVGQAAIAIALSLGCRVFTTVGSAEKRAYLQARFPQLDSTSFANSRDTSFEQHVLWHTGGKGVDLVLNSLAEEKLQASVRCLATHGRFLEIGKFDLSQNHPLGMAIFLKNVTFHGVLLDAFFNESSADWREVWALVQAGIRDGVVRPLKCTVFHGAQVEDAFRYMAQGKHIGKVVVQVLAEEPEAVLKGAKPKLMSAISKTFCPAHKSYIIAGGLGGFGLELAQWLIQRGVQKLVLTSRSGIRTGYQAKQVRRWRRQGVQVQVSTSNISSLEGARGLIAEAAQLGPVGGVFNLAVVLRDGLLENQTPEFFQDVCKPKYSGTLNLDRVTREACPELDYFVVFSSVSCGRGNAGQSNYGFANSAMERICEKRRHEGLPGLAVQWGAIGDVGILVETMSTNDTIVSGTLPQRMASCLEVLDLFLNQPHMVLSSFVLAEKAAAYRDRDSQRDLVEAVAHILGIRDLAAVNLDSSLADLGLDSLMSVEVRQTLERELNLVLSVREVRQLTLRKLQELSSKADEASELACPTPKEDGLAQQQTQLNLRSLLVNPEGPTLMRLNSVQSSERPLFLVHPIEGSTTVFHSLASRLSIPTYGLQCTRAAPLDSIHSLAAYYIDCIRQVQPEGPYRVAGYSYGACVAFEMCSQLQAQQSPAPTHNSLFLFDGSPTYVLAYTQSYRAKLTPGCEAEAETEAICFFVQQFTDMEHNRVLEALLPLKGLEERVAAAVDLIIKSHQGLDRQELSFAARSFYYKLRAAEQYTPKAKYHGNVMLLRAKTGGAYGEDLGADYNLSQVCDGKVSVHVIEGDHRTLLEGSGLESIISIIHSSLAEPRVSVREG
# testDetails: inhibition of human FAS-TE enzyme activity – biochemical, endpoint fluorescence intensity, uHTS hits, dose response (AID 624327)
# particulars: recombinant FAS-TE, OMFH fluorogenic substrate

compound	subjectOfTest	IC50
CC(C)(C)c1nc2scc(-c3cccs3)c2c(=O)o1	UniProt:P49327	3.39 µM
O=C(Nc1nnc(SCc2ccccc2Cl)s1)c1cccc([N+](=O)[O-])c1	UniProt:P49327	11.4 µM
O=C(COc1ccccc1)Nc1nc(-c2ccc(S(=O)(=O)N3CCOCC3)cc2)cs1	UniProt:P49327	0.417 µM
COC(=O)c1cc(C(=O)NC(C)C2CC3CCC2C3)cc([N+](=O)[O-])c1 (stereo not drawn)	UniProt:P49327	11.6 µM
Cc1ccc(NC(=O)NNC(=O)Cn2nc(-c3ccccc3)c(-c3ccccc3)c(C#N)c2=O)cc1	UniProt:P49327	4.69 µM
COCc1cc(C)nc(SCC[N+](C)(C)CC(=O)Nc2ccccc2)c1C#N	UniProt:P49327	12.3 µM
COc1ccc(NC(=O)CC2C(=O)N(C)C(=S)N2Cc2cccs2)cc1 (stereo not drawn)	UniProt:P49327	15.8 µM
CC(C)(C)OC(=O)NCCCC[C@H](NC(=O)c1nc[nH]c1C(=O)NCC(=O)OCc1ccccc1)C(=O)OC(C)(C)C	UniProt:P49327	< 0.16 µM
CN(C(=O)Nc1ccc(Cl)cc1Cl)[C@H]1c2cc(Br)ccc2OC[C@H]1CO	UniProt:P49327	11 µM
COc1ccc2cc3cc(C(=O)N4CC(C)CC(C)C4)oc3nc2c1 (stereo not drawn)	UniProt:P49327	3.85 µM
CCn1c(=O)c([N+](=O)[O-])c(N2CCN(Cc3ccc4c(c3)OCO4)CC2)c2ccccc21	UniProt:P49327	1.83 µM
CNS(=O)(=O)c1ccc2c(c1)C(=O)c1cc(S(=O)(=O)NC)ccc1CC2	UniProt:P49327	0.861 µM
COc1ccccc1C(=O)Nc1nc(-c2ccc(S(=O)(=O)N3CCOCC3)cc2)cs1	UniProt:P49327	11.8 µM
